test: Example 23: Bz-HC.HCl API single dose intranasal human PK study vs HB API; format: in vivo, humans; conditions: both sexes, human, plasma, inhaled or intranasal, 13.34 mg, 13.34 mg Bz-HC•HCl API, n = 22, read-out: AUC0-12 h of Bz-HC, Median (Min-Max)
Counter-ions that a name gives are not always drawn.
reportedEndpoint: AUC(0-t)
Number first, unit second: that is the form wanted.

Prompt: Quote AUC(0-t) reported for COc1ccc2c3c1O[C@H]1C(OC(=O)c4ccccc4)=CC[C@H]4[C@@H](C2)N(C)CC[C@]314 [Bz-HC•HCl, benzoate-hydrocodone hydrochloride] please.
Completion: 2.64 ng·h/mL

----------
assay: Example 23: Bz-HC.HCl API single dose intranasal human PK study vs HB API; assay type: in vivo, humans; conditions: both sexes, human, plasma, inhaled or intranasal, 13.34 mg, 13.34 mg Bz-HC•HCl API, n = 22, read-out: AUC0-12 h of Bz-HC, Mean (SD)
Structures can show the parent of a compound that is named as a salt.
reportedEndpoint: AUC(0-t) (ng·h/mL)
Express the result in ng·h/mL but write the number alone.

Prompt: Quote AUC(0-t) reported for COc1ccc2c3c1O[C@H]1C(OC(=O)c4ccccc4)=CC[C@H]4[C@@H](C2)N(C)CC[C@]314 [Bz-HC•HCl, benzoate-hydrocodone hydrochloride] please.
Completion: 3.59

----------
Experiment: Example 23: Bz-HC.HCl API single dose intranasal human PK study vs HB API
Assay type: in vivo, humans
Settings: both sexes, human, plasma, inhaled or intranasal, 13.34 mg, 13.34 mg Bz-HC•HCl API, n = 22, read-out: AUC0-24 h of Bz-HC, Mean (SD)
Source text: This was a randomized, double blind, single dose, two way crossover, single center study in recreational non-dependent opioid users. Subjects participated in a Screening Phase (Visit 1), Naloxone Challenge Test (Visit 2, Check in), Treatment Phase (Visit 2, inpatient) and Follow up Phase (Visit 3). A sufficient number of male and female subjects between the ages of 18-55 years were to be screened in order to enroll approximately 30 subjects into the Treatment Phase to ensure 24 completers.
Structures can show the parent of a compound that is named as a salt.
reportedEndpoint: AUC(0-t) (ng·h/mL)
Express the result in ng·h/mL but write the number alone.

Prompt: Quote AUC(0-t) reported for COc1ccc2c3c1O[C@H]1C(OC(=O)c4ccccc4)=CC[C@H]4[C@@H](C2)N(C)CC[C@]314 [Bz-HC•HCl, benzoate-hydrocodone hydrochloride] please.
Completion: 3.61

----------
test: Example 23: Bz-HC.HCl API single dose intranasal human PK study vs HB API; format: in vivo, humans; conditions: both sexes, human, plasma, inhaled or intranasal, 13.34 mg, 13.34 mg Bz-HC•HCl API, read-out: AUC0-0.75 h of Bz-HC, Median (Min-Max)
Structures can show the parent of a compound that is named as a salt.
reportedEndpoint: AUC(0-t) (ng·h/mL)
Express the result in ng·h/mL but write the number alone.

Prompt: Quote AUC(0-t) reported for COc1ccc2c3c1O[C@H]1C(OC(=O)c4ccccc4)=CC[C@H]4[C@@H](C2)N(C)CC[C@]314 [Bz-HC•HCl, benzoate-hydrocodone hydrochloride] please.
Completion: 0.977

----------
experiment: Example 23: Bz-HC.HCl API single dose intranasal human PK study vs HB API; assay type: in vivo, humans; conditions: both sexes, human, plasma, inhaled or intranasal, 13.34 mg, 13.34 mg Bz-HC•HCl API, read-out: AUC0-0.75 h of Bz-HC, Mean (SD)
Where a name gives a salt, the structure may show the parent alone.
reportedEndpoint: AUC(0-t) (ng·h/mL)
Express the result in ng·h/mL but write the number alone.

Prompt: Quote AUC(0-t) reported for COc1ccc2c3c1O[C@H]1C(OC(=O)c4ccccc4)=CC[C@H]4[C@@H](C2)N(C)CC[C@]314 [Bz-HC•HCl, benzoate-hydrocodone hydrochloride] please.
Completion: 1.15

----------
experiment: Example 23: Bz-HC.HCl API single dose intranasal human PK study vs HB API; format: in vivo, humans; conditions: both sexes, human, plasma, inhaled or intranasal, 13.34 mg, 13.34 mg Bz-HC•HCl API, n = 23, read-out: AUC0-1.5 h of Bz-HC, Mean (SD)
Counter-ions that a name gives are not always drawn.
reportedEndpoint: AUC(0-t)

Prompt: Quote AUC(0-t) reported for COc1ccc2c3c1O[C@H]1C(OC(=O)c4ccccc4)=CC[C@H]4[C@@H](C2)N(C)CC[C@]314 [Bz-HC•HCl, benzoate-hydrocodone hydrochloride] please.
Completion: 2.06 ng·h/mL

----------
assay: Example 23: Bz-HC.HCl API single dose intranasal human PK study vs HB API; assay type: in vivo, humans; conditions: both sexes, human, plasma, inhaled or intranasal, 13.34 mg, 13.34 mg Bz-HC•HCl API, read-out: AUC0-1 h of Bz-HC, Median (Min-Max)
Counter-ions that a name gives are not always drawn.
reportedEndpoint: AUC(0-t) (ng·h/mL)
Express the result in ng·h/mL but write the number alone.

Prompt: Quote AUC(0-t) reported for COc1ccc2c3c1O[C@H]1C(OC(=O)c4ccccc4)=CC[C@H]4[C@@H](C2)N(C)CC[C@]314 [Bz-HC•HCl, benzoate-hydrocodone hydrochloride] please.
Completion: 1.24

----------
test: Example 23: Bz-HC.HCl API single dose intranasal human PK study vs HB API; format: in vivo, humans; settings: both, human, plasma, inhaled or intranasal, 13.34 mg, AUC0-[…] of Bz-HC, Median (Min-Max), 13.34 mg Bz-HC•HCl API, read-out: AUC0-0.25 h of Bz-HC, Median (Min-Max)
Counter-ions that a name gives are not always drawn.
reportedEndpoint: AUC(0-t)
Number first, unit second: that is the form wanted.

Prompt: Quote AUC(0-t) reported for COc1ccc2c3c1O[C@H]1C(OC(=O)c4ccccc4)=CC[C@H]4[C@@H](C2)N(C)CC[C@]314 [Bz-HC•HCl, benzoate-hydrocodone hydrochloride] please.
Completion: 0.197 ng·h/mL

----------
assay: Example 23: Bz-HC.HCl API single dose intranasal human PK study vs HB API; type: in vivo, humans; settings: both sexes, human, plasma, inhaled or intranasal, 13.34 mg, 13.34 mg Bz-HC•HCl API, n = 22, read-out: AUC0-4 h of Bz-HC, Median (Min-Max)
Counter-ions that a name gives are not always drawn.
reportedEndpoint: AUC(0-t) (ng·h/mL)
Express the result in ng·h/mL but write the number alone.

Prompt: Quote AUC(0-t) reported for COc1ccc2c3c1O[C@H]1C(OC(=O)c4ccccc4)=CC[C@H]4[C@@H](C2)N(C)CC[C@]314 [Bz-HC•HCl, benzoate-hydrocodone hydrochloride] please.
Completion: 2.36

----------
test: Example 23: Bz-HC.HCl API single dose intranasal human PK study vs HB API; assay type: in vivo, humans; details: both sexes, human, plasma, inhaled or intranasal, 13.34 mg, 13.34 mg Bz-HC•HCl API, read-out: AUC0-0.0833 h of Bz-HC, Mean (SD)
Structures can show the parent of a compound that is named as a salt.
reportedEndpoint: AUC(0-t) (ng·h/mL)
Express the result in ng·h/mL but write the number alone.

Prompt: Quote AUC(0-t) reported for COc1ccc2c3c1O[C@H]1C(OC(=O)c4ccccc4)=CC[C@H]4[C@@H](C2)N(C)CC[C@]314 [Bz-HC•HCl, benzoate-hydrocodone hydrochloride] please.
Completion: 0.0153

----------
assay: Example 23: Bz-HC.HCl API single dose intranasal human PK study vs HB API; assay type: in vivo, humans; conditions: both sexes, human, plasma, inhaled or intranasal, 13.34 mg, 13.34 mg Bz-HC•HCl API, n = 22, read-out: AUC0-4 h of Bz-HC, Mean (SD)
Where a name gives a salt, the structure may show the parent alone.
reportedEndpoint: AUC(0-t) (ng·h/mL)
Express the result in ng·h/mL but write the number alone.

Prompt: Quote AUC(0-t) reported for COc1ccc2c3c1O[C@H]1C(OC(=O)c4ccccc4)=CC[C@H]4[C@@H](C2)N(C)CC[C@]314 [Bz-HC•HCl, benzoate-hydrocodone hydrochloride] please.
Completion: 3.14
